Just for reference, the supplement of paper PMC7125110 is where these values come from.

Exercise: state measured self-cleavage kobs at 160 uM GlcN6P for each of the variants provided.
B1: glmS ribozyme (parent)
chain: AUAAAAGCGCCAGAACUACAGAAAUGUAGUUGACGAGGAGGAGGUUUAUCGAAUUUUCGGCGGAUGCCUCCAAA

Variants of: B1
Assay: self-cleavage kobs at 160 uM GlcN6P; higher = faster cleavage; RNA array
Conditions: with glucosamine-6-phosphate
Variants at the floor of the assay were thinned out.

## Input Can you look up the measured self-cleavage kobs at 160 uM GlcN6P of G9C U56G for me?
## Output < 1e-05 s⁻¹

## Input Can you look up the measured self-cleavage kobs at 160 uM GlcN6P of A64G G66U for me?
## Output 0.000178 s⁻¹

## Input Can you look up the measured self-cleavage kobs at 160 uM GlcN6P of G9C G41A for me?
## Output < 1e-05 s⁻¹

## Input Can you look up the measured self-cleavage kobs at 160 uM GlcN6P of G13C U45C for me?
## Output < 1e-05 s⁻¹

## Input Can you look up the measured self-cleavage kobs at 160 uM GlcN6P of G32U U56A for me?
## Output 3.3e-05 s⁻¹

## Input Can you look up the measured self-cleavage kobs at 160 uM GlcN6P of C70U C71G for me?
## Output 7e-05 s⁻¹

## Input Can you look up the measured self-cleavage kobs at 160 uM GlcN6P of C34A U56G for me?
## Output < 1e-05 s⁻¹

## Input Can you look up the measured self-cleavage kobs at 160 uM GlcN6P of A6G G9C for me?
## Output < 1e-05 s⁻¹

## Input Can you look up the measured self-cleavage kobs at 160 uM GlcN6P of U55G G62C for me?
## Output < 1e-05 s⁻¹

## Input Can you look up the measured self-cleavage kobs at 160 uM GlcN6P of A48C A64G for me?
## Output < 1e-05 s⁻¹

## Input Can you look up the measured self-cleavage kobs at 160 uM GlcN6P of G41A G60A G63U for me?
## Output < 1e-05 s⁻¹

## Input Can you look up the measured self-cleavage kobs at 160 uM GlcN6P of G32U U54G for me?
## Output 7.28e-05 s⁻¹

## Input Can you look up the measured self-cleavage kobs at 160 uM GlcN6P of G9A C16G for me?
## Output < 1e-05 s⁻¹
